# Test system: GABA-A receptor; alpha-1/beta-3/gamma-2 (Homo sapiens, UniProt P14867+P18507+P28472)
# Sequence (P14867 whole entry): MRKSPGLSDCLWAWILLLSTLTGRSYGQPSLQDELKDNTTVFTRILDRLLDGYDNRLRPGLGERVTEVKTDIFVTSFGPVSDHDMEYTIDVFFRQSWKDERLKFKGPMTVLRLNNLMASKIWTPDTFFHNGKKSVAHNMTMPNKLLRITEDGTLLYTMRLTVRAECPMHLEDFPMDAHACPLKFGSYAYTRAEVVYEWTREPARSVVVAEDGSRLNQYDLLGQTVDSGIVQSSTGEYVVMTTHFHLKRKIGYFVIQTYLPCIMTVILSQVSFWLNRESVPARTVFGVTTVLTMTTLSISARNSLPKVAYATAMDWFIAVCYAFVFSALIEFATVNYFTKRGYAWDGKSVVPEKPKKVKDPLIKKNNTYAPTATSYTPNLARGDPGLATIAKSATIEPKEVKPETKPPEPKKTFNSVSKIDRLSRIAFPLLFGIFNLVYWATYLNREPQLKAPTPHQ
# Sequence (P18507 whole entry): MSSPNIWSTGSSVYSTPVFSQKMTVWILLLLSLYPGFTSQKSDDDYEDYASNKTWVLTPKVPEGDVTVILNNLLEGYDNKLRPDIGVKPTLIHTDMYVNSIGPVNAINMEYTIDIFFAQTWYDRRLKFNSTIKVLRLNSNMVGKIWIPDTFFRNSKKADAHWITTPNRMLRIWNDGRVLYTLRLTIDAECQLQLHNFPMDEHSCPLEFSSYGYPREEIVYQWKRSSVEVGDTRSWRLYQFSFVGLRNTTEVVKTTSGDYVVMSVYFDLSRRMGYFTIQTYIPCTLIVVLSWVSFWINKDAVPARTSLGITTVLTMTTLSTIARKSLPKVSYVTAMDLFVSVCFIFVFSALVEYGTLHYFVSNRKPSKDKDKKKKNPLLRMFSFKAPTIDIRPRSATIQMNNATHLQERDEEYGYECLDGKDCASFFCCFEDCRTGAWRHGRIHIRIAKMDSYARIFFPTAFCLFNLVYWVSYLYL
# Sequence (P28472 whole entry): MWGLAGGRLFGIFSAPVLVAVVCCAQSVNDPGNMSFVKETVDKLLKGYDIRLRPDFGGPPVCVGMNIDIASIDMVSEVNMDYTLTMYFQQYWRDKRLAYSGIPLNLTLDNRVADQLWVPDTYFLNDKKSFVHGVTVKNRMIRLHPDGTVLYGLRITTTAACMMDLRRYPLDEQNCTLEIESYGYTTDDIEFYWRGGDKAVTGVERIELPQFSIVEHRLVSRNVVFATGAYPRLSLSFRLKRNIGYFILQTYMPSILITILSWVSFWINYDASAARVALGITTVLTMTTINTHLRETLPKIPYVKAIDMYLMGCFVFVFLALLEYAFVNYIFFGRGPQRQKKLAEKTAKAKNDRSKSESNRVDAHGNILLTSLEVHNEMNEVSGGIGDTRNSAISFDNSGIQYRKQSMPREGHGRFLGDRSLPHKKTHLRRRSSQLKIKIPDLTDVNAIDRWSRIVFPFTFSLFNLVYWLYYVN
# Assay notes: Displacement of [3H]flunitrazepam from human recombinant GABAA alpha-1-beta-3-gamma-2 receptor expressed in HEK293 cells
Assay readout: pKi
Recall that pKi is obtained by taking minus log10 of the concentration measured in molar.

A selection of reference data follows.
smiles_input=C#Cc1ccc2c(c1)C(c1ccccc1)=NCc1c(C(=O)OCCCOC(=O)c3ncn4c3CN=C(c3ccccc3)c3cc(C#C)ccc3-4)ncn1-2 observed_result=6.63
smiles_input=C#Cc1ccc2c(c1)C(=O)N(C)Cc1c(C(=O)OCCCCCOC(=O)c3ncn4c3CN(C)C(=O)c3cc(C#C)ccc3-4)ncn1-2 observed_result=6.64
smiles_input=CCc1ccc2c(c1)C(=O)N(C)Cc1c(C(=O)OCCCOC(=O)c3ncn4c3CN(C)C(=O)c3cc(CC)ccc3-4)ncn1-2 observed_result=5.73

Prompt: Could you tell me which pKi is on file for "C#Cc1ccc2c(c1)C(c1ccccc1)=NCc1c(C(=O)OCCOCCOC(=O)c3ncn4c3CN=C(c3ccccc3)c3cc(C#C)ccc3-4)ncn1-2" ?
Response: 6.34

Prompt: Could you tell me which pKi is on file for "C#Cc1ccc2c(c1)C(=O)N(C)Cc1c(C(=O)OCOCOC(=O)c3ncn4c3CN(C)C(=O)c3cc(C#C)ccc3-4)ncn1-2" ?
Response: 5.42
